test system: E. coli TESEC Mtb Alr; assay: growth (OD600 after 10 h); higher = more growth (less inhibition); details: arabinose 10000 nM; compound 0.1 mM; raw OD600 reference: median of DMSO wells 0.264, cell-free background 0.041
Counter-ions that a name gives are not always drawn.
value kind: growth
API note: the answer field is a bare number with no unit suffix.

-- ask Let me know recorded growth for CNCC(O)c1ccc(O)c(O)c1 (stereo unspecified) [Racepinephrine HCl] , thanks.
-- reply 0.291

-- ask Let me know recorded growth for NC(=O)C(c1ccccc1)(c1ccccc1)[C@@H]1CCN(CCc2ccc3c(c2)CCO3)C1 [Darifenacin hydrobromide] , thanks.
-- reply 0.292

-- ask Let me know recorded growth for CC(=O)O[C@H]1C(=O)[C@@]2(C)[C@H]([C@H](OC(=O)c3ccccc3)[C@]3(O)C[C@H](OC(=O)[C@H](O)[C@@H](NC(=O)c4ccccc4)c4ccccc4)C(C)=C1C3(C)C)[C@]1(OC(C)=O)CO[C@@H]1C[C@@H]2O , thanks.
-- reply 0.255

-- ask Let me know recorded growth for C[C@]12CC[C@@H]3c4ccc(OS(=O)(=O)O)cc4CC[C@H]3[C@@H]1CCC2=O [Estropipate] , thanks.
-- reply 0.251

-- ask Let me know recorded growth for NC1CCN(c2nc3c(cc2F)c(=O)c(C(=O)O)cn3-c2ccc(F)cc2F)C1 (stereo unspecified) [Tosufloxacin hydrochloride] , thanks.
-- reply 0.0491

Origin of measurements: the supplement of paper PMC9262897
